Source of measurements: ChEMBL document CHEMBL1127493

system: Escherichia coli; assay: In vitro minimum inhibitory concentration against Escherichia coli UBMS 90-4 (tet M ribosomal protection).; assay type: functional
Reported Property: MIC (mg/L)

CN(C)c1cc(N)c(O)c2c1CC1CC3[C@H](N(C)C)C(=O)C(C(N)=O)=C(O)[C@@]3(O)C(=O)C1=C2O.Cl (some centres undefined) | 8
CCN(CC)c1cc(NC=O)c(O)c2c1CC1CC3[C@H](N(C)C)C(=O)C(C(N)=O)=C(O)[C@@]3(O)C(=O)C1=C2O (some centres undefined) | 8
CC(=O)Nc1cc(N(C)C)c2c(c1O)C(O)=C1C(=O)[C@]3(O)C(O)=C(C(N)=O)C(=O)[C@@H](N(C)C)C3CC1C2 (some centres undefined) | 4
CCN(CC)c1cc(N)c(O)c2c1CC1CC3[C@H](N(C)C)C(=O)C(C(N)=O)=C(O)[C@@]3(O)C(=O)C1=C2O.Cl (some centres undefined) | 32
CCN(CC)c1cc(NC(C)=O)c(O)c2c1CC1CC3[C@H](N(C)C)C(=O)C(C(N)=O)=C(O)[C@@]3(O)C(=O)C1=C2O (some centres undefined) | 32
CC(=O)Nc1ccc2c(c1O)C(O)=C1C(=O)[C@]3(O)C(O)=C(C(N)=O)C(=O)[C@@H](N(C)C)C3CC1C2.O=S(=O)(O)O (some centres undefined) | 8
CN(C)CC(=O)Nc1ccc2c(c1O)C(=O)C1=C(O)[C@]3(O)C(O)=C(C(N)=O)C(=O)[C@@H](N(C)C)C3CC1C2.Cl (some centres undefined) | 0.12
CN(C)CC(=O)Nc1cc(I)c2c(c1O)C(=O)C1=C(O)[C@]3(O)C(O)=C(C(N)=O)C(=O)[C@@H](N(C)C)C3CC1C2.Cl (some centres undefined) | 1

1: CN(C)[C@@H]1C(=O)C(C(N)=O)=C(O)[C@@]2(O)C(=O)C3=C(O)c4c(ccc(NC=O)c4O)CC3CC12.O=S(=O)(O)O (some centres undefined)
2: CN(C)[C@@H]1C(=O)C(C(N)=O)=C(O)[C@@]2(O)C(=O)C3=C(O)c4c(O)c(NC=O)cc(I)c4CC3CC12.O=S(=O)(O)O (some centres undefined)
3: CN(C)[C@@H]1C(=O)C(C(N)=O)=C(O)[C@@]2(O)C(=O)C3=C(O)c4c(ccc(N)c4O)CC3CC12.O=S(=O)(O)O (some centres undefined)
Please give the order of these compounds when sorted by MIC, largest value leading. Provide the labels, sequenced as the question asks. 2, 3, 1
(2: 32 mg/L, 3: 16 mg/L, 1: 1 mg/L)

----------
test system: Staphylococcus aureus; experiment: In vitro minimum inhibitory concentration against Staphylococcus aureus UBMS 90-1 (tet M ribosomal protection).; format: functional
Reported Property: MIC (µg/mL)

Example entries and their recorded answers appear below.
CCN(CC)c1cc(NC(C)=O)c(O)c2c1CC1CC3[C@H](N(C)C)C(=O)C(C(N)=O)=C(O)[C@@]3(O)C(=O)C1=C2O (some centres undefined) | 2
CC(=O)Nc1cc(I)c2c(c1O)C(O)=C1C(=O)[C@]3(O)C(O)=C(C(N)=O)C(=O)[C@@H](N(C)C)C3CC1C2.O=S(=O)(O)O (some centres undefined) | 1
CN(C)CC(=O)Nc1cc(I)c2c(c1O)C(=O)C1=C(O)[C@]3(O)C(O)=C(C(N)=O)C(=O)[C@@H](N(C)C)C3CC1C2.Cl (some centres undefined) | 0.5
CN(C)[C@@H]1C(=O)C(C(N)=O)=C(O)[C@@]2(O)C(=O)C3=C(O)c4c(O)c(N)cc(I)c4CC3CC12.O=S(=O)(O)O (some centres undefined) | 0.5
CN(C)[C@@H]1C(=O)C(C(N)=O)=C(O)[C@@]2(O)C(=O)C3=C(O)c4c(ccc(NC=O)c4O)CC3CC12.O=S(=O)(O)O (some centres undefined) | 1
CC(=O)Nc1ccc2c(c1O)C(O)=C1C(=O)[C@]3(O)C(O)=C(C(N)=O)C(=O)[C@@H](N(C)C)C3CC1C2.O=S(=O)(O)O (some centres undefined) | 2

A: CN(C)CC(=O)Nc1ccc2c(c1O)C(=O)C1=C(O)[C@]3(O)C(O)=C(C(N)=O)C(=O)[C@@H](N(C)C)C3CC1C2.Cl (some centres undefined)
B: CN(C)c1cc(NC(=O)CN)c(O)c2c1CC1CC3[C@H](N(C)C)C(=O)C(C(N)=O)=C(O)[C@@]3(O)C(=O)C1=C2O.O=C(O)C(F)(F)F (some centres undefined)
Could you please tell me which of these two has the higher MIC: A or B ? Kindly give the label for the entry you pick. B

A: CCN(CC)c1cc(NC=O)c(O)c2c1CC1CC3[C@H](N(C)C)C(=O)C(C(N)=O)=C(O)[C@@]3(O)C(=O)C1=C2O (some centres undefined)
B: CN(C)[C@@H]1C(=O)C(C(N)=O)=C(O)[C@@]2(O)C(=O)C3=C(O)c4c(ccc(N)c4O)CC3CC12.O=S(=O)(O)O (some centres undefined)
C: CCN(CC)c1cc(N)c(O)c2c1CC1CC3[C@H](N(C)C)C(=O)C(C(N)=O)=C(O)[C@@]3(O)C(=O)C1=C2O.Cl (some centres undefined)
Form: Sort by [MIC] Order [ ascending ] Give the labels in the order requested. A, C, B

I: CN(C)c1cc(N)c(O)c2c1CC1CC3[C@H](N(C)C)C(=O)C(C(N)=O)=C(O)[C@@]3(O)C(=O)C1=C2O.Cl (some centres undefined)
II: CN(C)c1cc(NC=O)c(O)c2c1CC1CC3[C@H](N(C)C)C(=O)C(C(N)=O)=C(O)[C@@]3(O)C(=O)C1=C2O (some centres undefined)
III: CN(C)[C@@H]1C(=O)C(C(N)=O)=C(O)[C@@]2(O)C(=O)C3=C(O)c4c(O)c(NC=O)cc(I)c4CC3CC12.O=S(=O)(O)O (some centres undefined)
IV: CC(=O)Nc1cc(N(C)C)c2c(c1O)C(O)=C1C(=O)[C@]3(O)C(O)=C(C(N)=O)C(=O)[C@@H](N(C)C)C3CC1C2 (some centres undefined)
Could you please sort these 4 entries by MIC from high to low? Please respond by ranking the labels in the order requested. III, IV, I, II
(III: 4 µg/mL, IV: 1 µg/mL, I: 0.5 µg/mL, II: 0.06 µg/mL)

----------
tested on: Staphylococcus aureus; experiment: In vitro minimum inhibitory concentration against Staphylococcus aureus UBMS 90-3 (sensitive).; format: functional
Reported Property: MIC (µg/mL)

Completed entries (count: 2):
CCN(CC)c1cc(NC(C)=O)c(O)c2c1CC1CC3[C@H](N(C)C)C(=O)C(C(N)=O)=C(O)[C@@]3(O)C(=O)C1=C2O (stereo not given in full) | 0.12
CN(C)[C@@H]1C(O)=C(C(N)=O)C(=O)[C@@]2(O)C(O)=C3C(=O)c4c(O)cccc4[C@@](C)(O)[C@H]3C[C@@H]12 [TETRACYCLINE] | 0.25

1: CC(=O)Nc1ccc2c(c1O)C(O)=C1C(=O)[C@]3(O)C(O)=C(C(N)=O)C(=O)[C@@H](N(C)C)C3CC1C2.O=S(=O)(O)O (stereo not given in full)
2: CC(=O)Nc1cc(N(C)C)c2c(c1O)C(O)=C1C(=O)[C@]3(O)C(O)=C(C(N)=O)C(=O)[C@@H](N(C)C)C3CC1C2 (stereo not given in full)
3: CN(C)[C@@H]1C(=O)C(C(N)=O)=C(O)[C@@]2(O)C(=O)C3=C(O)c4c(O)c(NC=O)cc(I)c4CC3CC12.O=S(=O)(O)O (stereo not given in full)
Exam item: list the entries in increasing order of MIC. Dear reader, please state the labels in the requested order. 3, 1, 2

----------
system: Staphylococcus aureus; experiment: In vitro minimum inhibitory concentration against Staphylococcus aureus smith (sensitive).; type: functional
Reported Property: MIC (µg/mL)

// below: answered compounds
CN(C)c1cc(NC=O)c(O)c2c1CC1CC3[C@H](N(C)C)C(=O)C(C(N)=O)=C(O)[C@@]3(O)C(=O)C1=C2O (stereo partly drawn) | 0.03
CN(C)CC(=O)Nc1cc(N(C)C)c2c(c1O)C(=O)C1=C(O)[C@]3(O)C(O)=C(C(N)=O)C(=O)[C@@H](N(C)C)C3CC1C2.Cl (stereo partly drawn) | 0.12

A: CN(C)c1cc(N)c(O)c2c1CC1CC3[C@H](N(C)C)C(=O)C(C(N)=O)=C(O)[C@@]3(O)C(=O)C1=C2O.Cl (stereo partly drawn)
B: CC(=O)Nc1cc(N(C)C)c2c(c1O)C(O)=C1C(=O)[C@]3(O)C(O)=C(C(N)=O)C(=O)[C@@H](N(C)C)C3CC1C2 (stereo partly drawn)
// compare measured MIC between A and B ; output the lower one Identify your selection by its label. A

I: CCN(CC)c1cc(N)c(O)c2c1CC1CC3[C@H](N(C)C)C(=O)C(C(N)=O)=C(O)[C@@]3(O)C(=O)C1=C2O.Cl (stereo partly drawn)
II: CN(C)CC(=O)Nc1ccc2c(c1O)C(=O)C1=C(O)[C@]3(O)C(O)=C(C(N)=O)C(=O)[C@@H](N(C)C)C3CC1C2.Cl (stereo partly drawn)
# query: argmin of MIC over I and II Mark your answer with the label of the selected entry. I
(I: 0.03 µg/mL, II: 0.12 µg/mL)
